# pEC50 listing for each entry below
system: T1, SARS-CoV-2 Gamma Variant RBD (SARS-CoV-2 Gamma variant)
T1 construct: domain: RBD; coated on ELISA plates
protocol_details: ELISA, RBD coated
pEC50: −log10 of the molar value.

binder | pEC50
PP907 MBP-5HVZ-S1b-E11-H6 (VHH, Form: Dimer) VHH: QVQLVESGGGLVQPGGSLRLSCAASGSYASIASMHWFRQAPGKEREFVAGVTSGGSTNYGDSVKGRFTISRDNAKNTVYLQMNSLKPEDTAVYYCNALAGANYESQWEEYNYWGQGTQVTVSS | 6.92
PP1112 MBP-5HVZ-PAPA-RN-28-H6 (VHH, Form: Dimer) VHH: QVQLVESGGGLVQPGGSLRLSCAASGSQFSHNLMSWFRQAPGKQREFVAAITSFGSTGYADSVKGRFTISRDNAKNTVYLQMNSLKPEDTAVYYCAALSSEDTSHYPRNYWGQGTQVTVSS | 8.52
PP1113 MBP-5HVZ-PAPA-RN-29-H6 (VHH, Form: Dimer) VHH: QVQLVESGGGLVQPGGSLRLSCAASGYILSENLTAWFRQAPGKAREVVATVTSGDYTNYDDSVKGRFTISRDNAKNTVYLQMNSLKPEDTAVYYCAAGTSDWEVKWSHWGQGTQVTVSS | 8.47
PP1097 MBP-5HVZ-PAPA-RN-5-H6 (VHH) VHH: QVQLVESGGGLVQPGGSLRLSCAASGSSFRILAMHWYRQAPGKNREWVAVITSNGNTYYADSVKGRFTISRDNAKNTVYLQMNSLKPEDTAVYYCNADTLDLDDGATYNYWGQGTQVTVSS | 7.23
